# target: recombinant guanylate cyclase reporter cell line (Rattus norvegicus, UniProt P19686+P20595)
# Construct: expressed in transfected cells
# Sequence (P20595 1-619): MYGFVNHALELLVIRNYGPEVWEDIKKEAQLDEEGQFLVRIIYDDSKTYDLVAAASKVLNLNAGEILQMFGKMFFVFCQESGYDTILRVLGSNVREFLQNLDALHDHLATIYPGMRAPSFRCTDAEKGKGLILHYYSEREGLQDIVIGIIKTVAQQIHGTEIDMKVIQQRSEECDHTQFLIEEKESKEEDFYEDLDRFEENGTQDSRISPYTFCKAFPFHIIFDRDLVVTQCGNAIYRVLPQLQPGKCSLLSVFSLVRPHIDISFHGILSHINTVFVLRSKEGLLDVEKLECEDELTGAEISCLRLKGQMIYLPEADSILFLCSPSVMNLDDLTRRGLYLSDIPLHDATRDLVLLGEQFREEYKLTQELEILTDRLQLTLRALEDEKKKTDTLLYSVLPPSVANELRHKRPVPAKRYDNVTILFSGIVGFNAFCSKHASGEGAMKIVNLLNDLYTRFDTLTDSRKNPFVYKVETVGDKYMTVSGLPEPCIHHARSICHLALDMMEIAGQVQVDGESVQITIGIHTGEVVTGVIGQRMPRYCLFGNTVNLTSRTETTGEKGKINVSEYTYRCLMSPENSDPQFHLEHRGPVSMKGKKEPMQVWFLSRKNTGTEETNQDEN
# Sequence (P19686 1-690): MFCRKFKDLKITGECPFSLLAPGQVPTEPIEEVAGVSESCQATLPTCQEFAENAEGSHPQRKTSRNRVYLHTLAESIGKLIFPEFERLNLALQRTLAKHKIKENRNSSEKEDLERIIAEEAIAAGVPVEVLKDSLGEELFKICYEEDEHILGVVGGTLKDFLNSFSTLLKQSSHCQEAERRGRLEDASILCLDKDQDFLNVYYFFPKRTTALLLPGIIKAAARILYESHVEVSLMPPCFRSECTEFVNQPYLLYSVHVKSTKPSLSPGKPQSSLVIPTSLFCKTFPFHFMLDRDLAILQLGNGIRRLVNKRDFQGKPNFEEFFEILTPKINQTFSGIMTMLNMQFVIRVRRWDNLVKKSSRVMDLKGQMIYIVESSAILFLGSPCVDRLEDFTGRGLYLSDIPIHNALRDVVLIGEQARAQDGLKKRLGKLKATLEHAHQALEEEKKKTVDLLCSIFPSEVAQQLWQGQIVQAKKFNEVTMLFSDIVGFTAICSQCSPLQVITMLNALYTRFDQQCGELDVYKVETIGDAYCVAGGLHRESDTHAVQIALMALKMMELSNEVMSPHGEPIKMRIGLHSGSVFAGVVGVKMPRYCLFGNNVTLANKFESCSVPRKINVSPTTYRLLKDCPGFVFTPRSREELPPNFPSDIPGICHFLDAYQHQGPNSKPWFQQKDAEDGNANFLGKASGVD
# assay text: Effect on a recombinant guanylate cyclase reporter cell line (B-2)
# Format: cell-based
# details: MEC = minimum effective concentration; in some cases mean values from individual determinations
Below is a list of entries, each paired with its recorded MEC value.
measurement kind: MEC (µM)

1. Cc1cc(OCc2c(F)cccc2F)c2nc(C)c(C(=O)NC(C)C#N)n2c1 (single isomer, unassigned) [Example 15] : 0.3
2. Cc1nc2c(OCC3CCCCC3)cccn2c1C(=O)NC(C#N)c1ccc(Cl)cc1 (racemic) : 1
3. Cc1cc(OCc2c(F)cccc2F)c2nc(C)c(C(=O)Nc3[nH]ncc3C#N)n2c1 : 1
4. Cc1cc(OCc2c(F)cccc2F)c2nc(C)c(C(=O)NCCC#N)n2c1 : 0.3
5. COCC(C)(C#N)NC(=O)c1c(C)nc2c(OCc3c(F)cccc3F)cc(C)cn12 (racemic) : 0.3
6. Cc1cc(OC(C)c2c(F)cccc2F)c2nc(C)c(C(=O)NC(C#N)c3ccc(Cl)cc3)n2c1 (centres unmarked) : 10
7. Cc1cc(OCc2c(F)cccc2F)c2nc(C)c(C(=O)Nc3ccc(CC#N)cc3)n2c1 : 1
8. CCC(CC#N)NC(=O)c1c(C)nc2c(OCc3c(F)cccc3F)cc(C)cn12 (racemic) : 1

----------
# target: recombinant guanylate cyclase reporter cell line (Rattus norvegicus, UniProt P19686+P20595)
# Construct: expressed in transfected cells
# Sequence (P20595 1-619): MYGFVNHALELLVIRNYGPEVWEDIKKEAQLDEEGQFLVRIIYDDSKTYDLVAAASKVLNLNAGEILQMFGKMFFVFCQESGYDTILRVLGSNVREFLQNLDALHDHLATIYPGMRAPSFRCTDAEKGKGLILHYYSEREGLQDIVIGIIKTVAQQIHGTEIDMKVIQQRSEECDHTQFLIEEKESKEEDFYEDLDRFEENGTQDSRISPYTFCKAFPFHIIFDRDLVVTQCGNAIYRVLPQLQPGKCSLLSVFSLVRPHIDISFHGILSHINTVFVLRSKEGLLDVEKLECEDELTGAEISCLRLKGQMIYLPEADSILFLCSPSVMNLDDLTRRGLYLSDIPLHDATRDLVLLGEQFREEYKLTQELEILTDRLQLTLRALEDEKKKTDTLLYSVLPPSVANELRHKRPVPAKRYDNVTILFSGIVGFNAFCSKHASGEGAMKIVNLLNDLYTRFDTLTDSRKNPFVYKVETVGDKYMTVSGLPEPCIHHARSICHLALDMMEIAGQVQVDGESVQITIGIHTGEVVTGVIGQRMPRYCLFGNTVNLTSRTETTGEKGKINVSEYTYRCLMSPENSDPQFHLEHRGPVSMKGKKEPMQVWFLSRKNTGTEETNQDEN
# Sequence (P19686 1-690): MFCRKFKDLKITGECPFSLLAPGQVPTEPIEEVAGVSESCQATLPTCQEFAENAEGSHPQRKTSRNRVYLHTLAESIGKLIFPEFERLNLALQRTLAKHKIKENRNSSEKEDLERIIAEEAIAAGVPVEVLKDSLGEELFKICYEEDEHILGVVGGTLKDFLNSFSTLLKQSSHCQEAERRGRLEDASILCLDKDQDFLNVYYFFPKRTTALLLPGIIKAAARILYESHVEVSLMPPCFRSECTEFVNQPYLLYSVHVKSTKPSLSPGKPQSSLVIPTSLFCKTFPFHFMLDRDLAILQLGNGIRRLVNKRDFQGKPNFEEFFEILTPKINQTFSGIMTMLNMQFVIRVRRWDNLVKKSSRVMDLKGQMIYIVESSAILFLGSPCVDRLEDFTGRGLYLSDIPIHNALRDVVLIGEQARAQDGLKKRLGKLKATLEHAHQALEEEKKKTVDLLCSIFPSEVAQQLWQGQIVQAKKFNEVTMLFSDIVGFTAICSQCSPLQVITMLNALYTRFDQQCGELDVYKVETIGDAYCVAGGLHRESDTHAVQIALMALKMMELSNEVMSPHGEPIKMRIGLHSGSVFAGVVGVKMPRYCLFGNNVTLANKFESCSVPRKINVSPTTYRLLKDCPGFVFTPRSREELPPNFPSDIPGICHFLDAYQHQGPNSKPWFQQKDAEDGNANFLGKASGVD
# assay text: Effect on a recombinant guanylate cyclase reporter cell line (B-2)
# Assay type: cell-based
# details: MEC = minimum effective concentration; in some cases mean values from individual determinations
Entries and their MEC values follow.
measurement kind: MEC (µM)

1. Cc1cc(OCc2c(F)cccc2F)c2nc(C)c(C(=O)NCC(N)CC#N)n2c1 (single isomer, unassigned) [Example 43] : 1
2. Cc1cc(OCc2c(F)cccc2F)c2nc(C)c(C(=O)NCC#N)n2c1 [Example 2] : 0.3
3. Cc1cc(OCc2c(F)ccc(F)c2F)c2nc(C)c(C(=O)NC(C#N)c3ccc(Cl)cc3)n2c1 (racemic) [Example 17] : 0.3
4. Cc1cc(OCc2c(F)cccc2F)c2nc(C)c(C(=O)NC3(C#N)CC3)n2c1 [Example 4] : 0.3
5. Cc1cc(OCc2c(F)cccc2F)c2nc(C)c(C(=O)NCC(N)CCCC#N)n2c1 (single isomer, unassigned) [Example 46] : 3
6. Cc1cc(OCc2c(F)cccc2F)c2nc(C)c(C(=O)NC(C)(C)C#N)n2c1 [Example 3] : 0.1
7. Cc1cc(OCc2c(F)cccc2F)c2nc(C)c(C(=O)NC(C)C#N)n2c1 (racemic) [Example 1] : 0.55
8. N#CC(NC(=O)c1cnc2c(OCc3c(F)cccc3F)cccn12)c1ccc(Cl)cc1 (racemic) [Example 18] : 10
9. COc1ccc(F)c(COc2cc(C)cn3c(C(=O)NC(C#N)c4ccc(Cl)cc4)c(C)nc23)c1F (racemic) [Example 22] : 3
10. Cc1cc(OCc2c(F)cccc2F)c2nc(C)c(C(=O)NC3CCCCC3C#N)n2c1 (stereo not shown) [Example 11] : 0.3

----------
# target: recombinant guanylate cyclase reporter cell line (Rattus norvegicus, UniProt P19686+P20595)
# Construct: expressed in transfected cells
# Sequence (P20595 1-619): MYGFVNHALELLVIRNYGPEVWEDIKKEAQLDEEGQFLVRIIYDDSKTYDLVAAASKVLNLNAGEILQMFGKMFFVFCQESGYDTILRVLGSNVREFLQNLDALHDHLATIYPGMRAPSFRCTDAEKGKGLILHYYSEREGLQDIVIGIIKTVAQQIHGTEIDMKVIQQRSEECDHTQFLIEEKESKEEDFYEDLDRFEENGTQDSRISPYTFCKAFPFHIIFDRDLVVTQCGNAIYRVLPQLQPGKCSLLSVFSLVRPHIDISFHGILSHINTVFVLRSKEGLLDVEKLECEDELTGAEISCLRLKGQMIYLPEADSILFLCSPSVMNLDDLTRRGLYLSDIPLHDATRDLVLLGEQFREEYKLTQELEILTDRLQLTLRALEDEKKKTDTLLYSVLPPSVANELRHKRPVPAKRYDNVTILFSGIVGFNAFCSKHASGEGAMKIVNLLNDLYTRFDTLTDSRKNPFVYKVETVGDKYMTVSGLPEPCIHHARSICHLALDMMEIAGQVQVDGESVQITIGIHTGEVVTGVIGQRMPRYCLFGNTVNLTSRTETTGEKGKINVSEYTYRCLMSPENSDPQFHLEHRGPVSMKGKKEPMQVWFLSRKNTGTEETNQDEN
# Sequence (P19686 1-690): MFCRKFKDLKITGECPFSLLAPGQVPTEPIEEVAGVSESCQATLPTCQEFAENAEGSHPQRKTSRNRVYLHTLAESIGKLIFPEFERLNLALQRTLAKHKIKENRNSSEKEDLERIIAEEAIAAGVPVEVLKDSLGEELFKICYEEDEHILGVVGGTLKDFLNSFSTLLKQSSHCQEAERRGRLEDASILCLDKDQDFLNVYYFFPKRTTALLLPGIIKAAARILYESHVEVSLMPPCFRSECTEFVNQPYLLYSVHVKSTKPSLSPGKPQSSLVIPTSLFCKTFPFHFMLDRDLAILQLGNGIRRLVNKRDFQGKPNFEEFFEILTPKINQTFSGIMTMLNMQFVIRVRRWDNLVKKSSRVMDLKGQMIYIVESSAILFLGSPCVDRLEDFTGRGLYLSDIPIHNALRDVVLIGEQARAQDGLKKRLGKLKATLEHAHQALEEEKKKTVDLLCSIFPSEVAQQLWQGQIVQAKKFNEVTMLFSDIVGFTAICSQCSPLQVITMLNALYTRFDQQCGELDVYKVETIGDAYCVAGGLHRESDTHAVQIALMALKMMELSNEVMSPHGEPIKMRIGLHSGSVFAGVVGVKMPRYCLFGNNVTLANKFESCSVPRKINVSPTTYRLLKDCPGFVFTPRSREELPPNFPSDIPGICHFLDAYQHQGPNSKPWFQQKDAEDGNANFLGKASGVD
# assay text: Effect on a recombinant guanylate cyclase reporter cell line (B-2)
# Assay type: cell-based
# details: MEC = minimum effective concentration; in some cases mean values from individual determinations
The entries below come with measured MEC values attached.
measurement kind: MEC (µM)

1) Cc1cc(OCc2c(F)cncc2F)c2nc(C)c(C(=O)NC(C#N)c3ccc(Cl)cc3)n2c1 (racemic) : 1
2) Cc1nc2c(OCc3c(F)cccc3F)cc(Cl)cn2c1C(=O)NC(C#N)c1ccc(Cl)cc1 (racemic) : 1
3) Cc1cc(OCc2c(F)cccc2F)c2nc(C)c(C(=O)NCC(N)CC#N)n2c1 (single isomer, unassigned) [Example 42] : 1
4) Cc1cc(OCc2c(F)cccc2F)c2nc(C)c(C(=O)NC3CNCC(C#N)C3)n2c1 (stereo not shown) : 0.3
5) Cc1cc(OCc2c(F)cccc2F)c2nc(C)c(C(=O)NCC(N)CCCC#N)n2c1 (racemic) [Example 45] : 2
6) COc1cc(OCc2c(F)cccc2F)c2nc(C)c(C(=O)NC(C#N)c3ccc(Cl)cc3)n2c1 (racemic) : 1
7) Cc1cc(OCCC(C(F)(F)F)C(F)(F)F)c2nc(C)c(C(=O)NC(C#N)c3ccc(Cl)cc3)n2c1 (racemic) : 3
